Test system: Cyp3a11
Test: Induction of Cyp3a11 gene expression in wild type mouse liver at 50 mg/kg dosed through gavage daily for 4 days by qPCR method
Format: ADME, organism-based
Set-up: dose 50 mg/kg
Conditions: po, read-out: FC
quantity_measured: fold induction at 96 h
# answer = number (no unit)

Given the molecule CC(=O)[C@H]1[C@H](C#N)C[C@H]2[C@@H]3CC=C4C[C@@H](O)CC[C@]4(C)[C@H]3CC[C@@]21C [PREGNENOLONE CARBONITRILE] , write its reported fold induction at 96 h.
20.9

* * *

Tested on: Cyp2c55
Test: Induction of Cyp2c55 gene expression in wild type mouse liver at 50 mg/kg dosed through gavage daily for 4 days by qPCR method
Type: ADME, organism-based
Set-up: dose 50 mg/kg
Settings: po, read-out: FC
quantity_measured: fold induction at 96 h
# answer = number (no unit)

Given the compound CC(=O)[C@H]1[C@H](C#N)C[C@H]2[C@@H]3CC=C4C[C@@H](O)CC[C@]4(C)[C@H]3CC[C@@]21C [PREGNENOLONE CARBONITRILE] , write its reported fold induction at 96 h.
303

* * *

Test system: Cyp2b10
Assay: Induction of Cyp2b10 gene expression in wild type mouse liver at 500 mg/kg for 7 to 14 days dosed through vitamin E-deficient base diet by qPCR method
Assay type: ADME, organism-based
Design: dose 500 mg/kg
Settings: po, read-out: FC
quantity_measured: fold induction
# answer = number (no unit)

Given the compound CC(=O)Oc1c(C)c(C)c2c(c1C)CCC(C)(CCCC(C)CCCC(C)CCCC(C)C)O2 (racemic) [alpha-TOCHOPHERYL ACETATE] , write its reported fold induction.
7.3

* * *

Test system: Cyp2c55
Assay: Induction of Cyp2c55 gene expression in male PXR-humanized mouse liver at 500 mg/kg for 7 to 14 days dosed through vitamin E-deficient base diet by qPCR method
Type: ADME, organism-based
Set-up: dose 500 mg/kg
Settings: po, read-out: FC
quantity_measured: fold induction

Given the molecule CC(=O)Oc1c(C)c(C)c2c(c1C)CCC(C)(CCCC(C)CCCC(C)CCCC(C)C)O2 (racemic) [alpha-TOCHOPHERYL ACETATE] , write its reported fold induction.
2.9

* * *

System: Cyp2b10
Assay: Induction of Cyp2b10 gene expression in wild type mouse liver at 50 mg/kg dosed through gavage daily for 4 days by qPCR method
Type: ADME, organism-based
Parameters: dose 50 mg/kg
Details: po, read-out: FC
quantity_measured: fold induction at 96 h
# answer = number (no unit)

Given the compound CC(=O)[C@H]1[C@H](C#N)C[C@H]2[C@@H]3CC=C4C[C@@H](O)CC[C@]4(C)[C@H]3CC[C@@]21C , write its reported fold induction at 96 h.
160

* * *

System: Ugt2b34
Assay: Induction of Ugt2b34 gene expression in wild type mouse liver at 50 mg/kg dosed through gavage daily for 4 days by qPCR method
Assay type: ADME, organism-based
Set-up: dose 50 mg/kg
Settings: po, read-out: FC
quantity_measured: fold induction at 96 h
# answer = number (no unit)

Check Ugt2b34 data and give fold induction at 96 h for CC(=O)[C@H]1[C@H](C#N)C[C@H]2[C@@H]3CC=C4C[C@@H](O)CC[C@]4(C)[C@H]3CC[C@@]21C .
3.2
